Source of measurements: patent US12708630B2

- procedureSummary: Pharmacokinetic evaluation in Mice (Table 3)
- Type: in vivo
- protocolConditions: mouse, in vivo; Mice, Table 3, PO 3 mg/kg
property: Cmax (ng/mL)

compound="Nc1ncn([C@H]2CC(O)[C@@H](CO)S2)c(=O)n1 (stereo partly shown) [Aza-T-dCyd, 4′-thio-5-aza-2′-deoxycytidine]" unitdescriptor=ng/mL experimentalvalue=576

###

- procedureSummary: Pharmacokinetic evaluation in Mice (Table 3)
- Assay type: in vivo
- protocolConditions: mouse, in vivo; Mice, Table 3, PO 10 mg/kg
- Protocol: Aza-T-dCyd was administered orally and intravenously at various concentrations to Mice, Rats and Dogs to determine the PK profile.
property: AUC(0-inf) (ng·h/mL)

compound="Nc1ncn([C@H]2CC(O)[C@@H](CO)S2)c(=O)n1 (stereo partly shown)" property=AUC(0-inf) unitdescriptor=ng·h/mL experimentalvalue=2600
